Hey, just so you know, these numbers are from PubChem BioAssay (NCI).

The compounds listed here are annotated with their growth.
Tested on: MALME-3M melanoma
Test Description: NCI-60 one-dose screen, 48 h (100 = growth as untreated, 0 = no growth, -100 = all killed)
Condition Set: 10 µM unless noted
The panel holds about 83,000 compounds, 20% with a hit somewhere; the sample as a whole holds those more often.

Compound	System	growth, %
COc1cc(NCC(=O)Nc2cc(Nc3ccc(C)cc3)ncn2)c(Cl)c(OC)c1Cl	MALME-3M melanoma	111
Nc1cc(N)c(S(=O)(=O)O)cc1N=Nc1cc([N+](=O)[O-])ccc1O	MALME-3M melanoma	103
COc1cc(-c2nn(-c3ccc(Br)cc3)cc2CO)ccc1O	MALME-3M melanoma	119
COc1ccc2nc(-c3ccc(OC)c(OC)c3)cc(-c3nnc(SCC(=O)Nc4ccc(C(C)=O)cc4)o3)c2c1	MALME-3M melanoma	109
COc1cc([C@H](C)c2ccc3ccccc3c2)cc(OC)c1OC	MALME-3M melanoma	64
C#C[C@@]1(O)[C@@H](CO)O[C@@H](n2ccc3c(N)ncnc32)[C@@H]1O	MALME-3M melanoma	-13.2
Cc1nn(-c2ccc(-c3ccc(OC(F)(F)F)cc3)cc2)c2nc(-c3ccccc3)nc(N)c12	MALME-3M melanoma	118
Cc1cccc(C)c1NCc1nnc(-c2ccco2)o1	MALME-3M melanoma	85.2
CCN(CC)c1ccc2c(c1)Oc1nc(N)c(C#N)c(N)c1C2Sc1ccc(OC)cc1 (stereo not given)	MALME-3M melanoma	1.4
COc1ccc2oc(=O)cc(-c3nc4ccc(N)cc4[nH]3)c2c1	MALME-3M melanoma	121
C#Cc1cccc(Nc2ncnc3ccc(NC(=O)c4ccccc4)cc23)c1	MALME-3M melanoma	104
O=C(Nc1ccc(S(=O)(=O)NC2CCCCCC2)cc1)C(c1ccccc1)S(=O)(=O)c1ccc(F)cc1 (stereo not given)	MALME-3M melanoma	-4.32
C#Cc1ccccc1NC(=O)c1sc2nc3c(cc2c1N)CCCCC3	MALME-3M melanoma	102
C=C(C)[C@@H]1CC[C@]2(C(=O)O)CC[C@]3(C)[C@H](CC[C@@H]4[C@@]5(C)C[C@@H](CC#Cc6ccccc6)C(=O)C(C)(C)[C@@H]5CC[C@]43C)[C@@H]12	MALME-3M melanoma	38.1
O=C1CS/C(=N/c2nnc(-c3ccc(O)cc3)s2)N1	MALME-3M melanoma	101
Cc1nc2sc(C(=O)Nc3ccccc3Cl)c(N)c2cc1C(C)O (stereo not given)	MALME-3M melanoma	88.6
N#Cc1c(-c2ccc(F)cc2)nc(N/N=C/c2c[nH]c3ccccc23)nc1N1CCOCC1	MALME-3M melanoma	-63.5
CC(C)(C)c1nc2c(s1)c1nc(N)ncc1c1ccc(NS(=O)(=O)c3c(F)cccc3F)c(F)c12	MALME-3M melanoma	-31.6
O=C1Nc2ccc(Br)cc2/C1=N\N=C/c1cn(Cc2ccccc2)c2ccccc12	MALME-3M melanoma	115
O=C1CC(c2ccc(O)c(O)c2)Oc2cc(O)c([C@@H]3O[C@H](CO)[C@@H](O)[C@H](O)[C@H]3O)c(O)c21 (stereo not given in full)	MALME-3M melanoma	110
CN(C)CCCn1c2c(c3cc(-c4ccco4)ccc3c1=O)C(=O)c1ccccc1-2	MALME-3M melanoma	113
COc1ccc2c(c1)Oc1nc(N)c(C#N)c(N)c1C2Sc1ccc(SC)cc1 (stereo not given)	MALME-3M melanoma	-22.5
S=c1ssnc1-c1cc2ccccc2o1	MALME-3M melanoma	79.8
Cn1c2c(c3ccc(-c4ccn[nH]4)cc3c1=O)C(=O)c1ccccc1-2	MALME-3M melanoma	55.8
NC(=O)c1ccc(C2C3=C(CCCC3=O)OC3=C2C(=O)c2ccccc2C3=O)cc1 (stereo not given)	MALME-3M melanoma	-16.3
Cc1ccc(C2CC(c3ccc(Nc4nc(NCCO)nc(NCCO)n4)cc3)=NN2c2ccc(Cl)cc2)cc1 (stereo not given)	MALME-3M melanoma	67.3
Cc1ccn2c3c(c(C(=O)O)c2c1)C(=O)c1ccccc1C3=O	MALME-3M melanoma	-62.7
COc1cccc(NC(=O)Nc2ccc(Nc3ncnc4[nH]c(C)c(C)c34)cc2)c1	MALME-3M melanoma	122
C#C[C@@]1(O)[C@@H](CO)O[C@@H](n2cc(Br)c3c(N)ncnc32)[C@@H]1O	MALME-3M melanoma	5.66
CCCCCCCCCCCCCC1=NCC[N+]1(CCO)Cc1ccccc1 (stereo not given)	MALME-3M melanoma	-75.8
COc1ccc(-c2[nH]c3ccccc3c2C=C(C#N)C#N)cc1	MALME-3M melanoma	87.4
COc1ccc(/C=C/C(=O)c2ccc(NC(=O)CSc3nnc(-c4ccc(OC)c(OC)c4)n3-c3ccccc3)cc2)cc1	MALME-3M melanoma	-75
CCOC(=O)C(=Cc1c(-c2ccccc2)[nH]c2ccccc12)C(=O)OCC	MALME-3M melanoma	95.5
COc1ccc2nc(-c3ccc(Cl)cc3)cc(C(=O)N3N=C(c4ccc(N)cc4)CC3c3ccccc3)c2c1 (stereo not given)	MALME-3M melanoma	62.5
O=C(O)c1ccc(-n2cc(/C=N/Nc3ccc(Cl)cc3Cl)c(-c3ccccc3)n2)cc1	MALME-3M melanoma	92.3
